# System: Ovcar3 (Muc16+) cells
# Assay remarks: In vitro cytotoxicity assay (CCK8 viability), Ovcar3 cells
# Assay type: cell-based
# Assay setup: Table 5, payloads only
Measure name: Ovcar3 % kill (%)
Numbers only, in %.

Previously resolved entries follow.
Smiles input | Ovcar3 % kill [%]
COc1cc2cc(c1Cl)N(C)C(=O)C[C@H](OC(=O)[C@H](C)N(C)C(=O)c1ccc(N)cc1C(F)(F)F)[C@]1(C)O[C@H]1[C@H](C)[C@@H]1C[C@@](O)(NC(=O)O1)[C@H](OC)/C=C/C=C(\C)C2 | 93
COc1cc2cc(c1Cl)N(C)C(=O)C[C@H](OC(=O)[C@H](C)N(C)C(=O)c1cc(F)c(N)cc1Cl)[C@]1(C)O[C@H]1[C@H](C)[C@@H]1C[C@@](O)(NC(=O)O1)[C@H](OC)/C=C/C=C(\C)C2 | 94
COc1cc2cc(c1Cl)N(C)C(=O)C[C@H](OC(=O)[C@H](C)N(C)C(=O)c1ccc(N)c(C(F)(F)F)c1)[C@]1(C)O[C@H]1[C@H](C)[C@@H]1C[C@@](O)(NC(=O)O1)[C@H](OC)/C=C/C=C(\C)C2 | 93
COc1cc2cc(c1Cl)N(C)C(=O)C[C@H](OC(=O)[C@H](C)N(C)C(=O)c1ccc(N)cc1F)[C@]1(C)O[C@H]1[C@H](C)[C@@H]1C[C@@](O)(NC(=O)O1)[C@H](OC)/C=C/C=C(\C)C2 | 93
COc1cc(N)ccc1C(=O)N(C)[C@@H](C)C(=O)O[C@H]1CC(=O)N(C)c2cc(cc(OC)c2Cl)C/C(C)=C/C=C/[C@@H](OC)[C@@]2(O)C[C@H](OC(=O)N2)[C@@H](C)[C@@H]2O[C@@]12C | 93

Sample `COc1cc2cc(c1Cl)N(C)C(=O)C[C@H](OC(=O)[C@H](C)N(C)C(=O)c1ccc(N)cc1)[C@]1(C)O[C@H]1[C@H](C)[C@@H]1C[C@@](O)(NC(=O)O1)[C@H](OC)/C=C/C=C(\C)C2` ; Ovcar3 % kill observed: 92
